Consider the following compounds and their measured Remaining Prodrugs 12 h pH 4.6 readings.
experiment: Chemical stability of the prodrugs in PBS (HPLC); type: physicochemical; settings: PBS pH 4.6, 37 °C, 12 h

INSERT INTO results (compound, readout_type, assay_value) VALUES
  ('CCc1c2c(nc3ccc(OC(=O)N[C@@H](CC(=O)O)C(=O)O)cc13)-c1cc3c(c(=O)n1C2)COC(=O)[C@]3(O)CC [Compound 5h, 10-OCO-(D-Asp-OH)-SN-38]', 'Remaining Prodrugs 12 h pH 4.6', '94.5%'),
  ('CCc1c2c(nc3ccc(OC(=O)NC(CCC(=O)O)C(=O)O)cc13)-c1cc3c(c(=O)n1C2)COC(=O)[C@]3(O)CC (some centres unmarked) [Compound 5d, 10-OCO-(Glu-OH)-SN-38]', 'Remaining Prodrugs 12 h pH 4.6', '92.5%');

Any idea what Remaining Prodrugs 12 h pH 4.6 was measured for CCc1c2c(nc3ccc(OC(=O)NCC(=O)NC(CCC(=O)O)C(=O)O)cc13)-c1cc3c(c(=O)n1C2)COC(=O)[C@]3(O)CC (stereo partly drawn) [Compound 7c, 10-OCO-(Glu-Gly-OH)-SN-38] ?
96.4%

Tell me the measured Remaining Prodrugs 12 h pH 4.6 of CCc1c2c(nc3ccc(OC(=O)NC(C)C(=O)N[C@H](CC(=O)O)C(=O)O)cc13)-c1cc3c(c(=O)n1C2)COC(=O)[C@]3(O)CC (stereo partly drawn) [Compound 7d, 10-OCO-(D-Asp-Ala-OH)-SN-38] , please.
95.5%

Requested field: Remaining Prodrugs 12 h pH 4.6. Item: CCc1c2c(nc3ccc(OC(=O)NC(C)C(=O)NC(CCC(=O)O)C(=O)O)cc13)-c1cc3c(c(=O)n1C2)COC(=O)[C@]3(O)CC (stereo partly drawn) [Compound 7f, 10-OCO-(Glu-Ala-OH)-SN-38]
94.7%
